Target: Peptidyl-prolyl cis-trans isomerase A (Rattus norvegicus) (UniProt P10111)
Sequence (P10111 whole entry): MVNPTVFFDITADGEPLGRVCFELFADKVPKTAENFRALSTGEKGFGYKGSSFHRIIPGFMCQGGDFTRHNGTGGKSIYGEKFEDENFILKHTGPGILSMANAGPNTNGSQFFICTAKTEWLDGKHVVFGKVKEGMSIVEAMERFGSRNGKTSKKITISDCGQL
Experiment: In vitro inhibition of the rotamase activity of cyclophilin A (CyPA) […]
Label NO if inhibition falls below 40%; label YES in every other case.

Answered cases to consult:
O=C(Nc1cccc2ccccc12)NC1CCCC(NC(=O)Nc2cccc3ccccc23)C1 (stereo unspecified)	YES
CC(C)(C)NC(=O)NC1CCCC(NC(=O)NC(C)(C)C)C1 (stereo unspecified)	NO
COc1cccc(NC(=O)NC2CCCC(NC(=O)Nc3cccc(OC)c3)C2)c1 (stereo unspecified)	YES
O=C(Nc1cccc(NC(=O)Nc2ccccn2)c1)Nc1ccccn1	NO
O=C(Nc1ccc(Cl)cc1)NC1CCCC(NC(=O)Nc2ccc(Cl)cc2)C1 (stereo unspecified)	NO

Q. Say whether O=C(NC1CCCCC1)NC1CCCC(NC(=O)NC2CCCCC2)C1 (stereo unspecified) shows inhibition of 40% or more.
A. NO

---

Entries and their IC50 values follow.
Target: Peptidyl-prolyl cis-trans isomerase A (Rattus norvegicus, UniProt P10111)
Entry rule: numbers only, all in nM.

Here is how some compounds turned out for IC50.
O=C(Nc1cccc2ccccc12)NC1CCCC(NC(=O)Nc2cccc3ccccc23)C1 (stereo not drawn)	4550
O=C(Cc1ccc2ccccc2c1)Nc1cccc(NC(=O)c2cc(Cl)cc(Cl)c2)c1	880
COc1cccc(NC(=O)NC2CCCC(NC(=O)Nc3cccc(OC)c3)C2)c1 (stereo not drawn)	9500
O=C(Nc1ccc(C(F)(F)F)cc1)Nc1cccc(NC(=O)c2cc(Cl)cc(Cl)c2)c1	940
S=C(Nc1cc(Cl)cc(Cl)c1)Nc1cccc(NC(=S)Nc2cc(Cl)cc(Cl)c2)c1	480
O=C(Nc1cc(Cl)cc(Cl)c1)Nc1cccc(NC(=O)c2cc(Cl)cc(Cl)c2)c1	690
O=C(Nc1cccc(NC(=O)c2cc(Cl)cc(Cl)c2)c1)Nc1ccc(Br)cc1Br	620

Please find the next compound below.
Q. Returns the measured IC50 for the input compound. Input: CCc1ccccc1NC(=O)Nc1cccc(NC(=O)c2cc(Cl)cc(Cl)c2)c1
A. 1410

---

Molecular target: Peptidyl-prolyl cis-trans isomerase A (Rattus norvegicus)
Experiment: In vitro inhibition of the rotamase activity of cyclophilin A (CyPA) […]
READOUT NAME: inhibition (%)
Entry rule: numbers only, all in %.

Here is how some compounds turned out for inhibition.
O=C(Nc1cccc(NC(=O)c2cccnc2)c1)c1cccnc1	6
N#Cc1cccc(NC(=O)Nc2cccc(NC(=O)Nc3cccc(C#N)c3)c2)c1	38

Please find the next compound below.
Q. Returns the measured inhibition for the input compound. Input: N#Cc1cccc(NC(=O)NC2CCCC(NC(=O)Nc3cccc(C#N)c3)C2)c1 (stereo not given)
A. 22

---

Biological target: Peptidyl-prolyl cis-trans isomerase A (Rattus norvegicus) (UniProt P10111)
Experiment: In vitro inhibition of the rotamase activity of cyclophilin A (CyPA) […]
READOUT NAME: inhibition (%)
Entry rule: numbers only, all in %.

O=C(Nc1cc(Cl)cc(Cl)c1)Nc1cccc(NC(=O)Nc2cc(Cl)cc(Cl)c2)c1	100
Cc1ccc(NC(=O)NC2CCCC(NC(=O)Nc3ccc(C)cc3C)C2)c(C)c1 (stereo not given)	40
O=C(NCc1ccccc1)NC1CCCC(NC(=O)NCc2ccccc2)C1 (stereo not given)	11
O=C(NC1CCCC(NC(=O)NC23CC4CC(CC(C4)C2)C3)C1)NC12CC3CC(CC(C3)C1)C2 (stereo not given)	28
O=C(Nc1cccc(NC(=O)Nc2ccc(Br)cc2Br)c1)Nc1ccc(Br)cc1Br	100
Cc1ccc(NC(=O)Nc2cccc(NC(=O)Nc3ccc(C)cc3C)c2)c(C)c1	100
O=C(NCC(c1ccccc1)c1ccccc1)Nc1cccc(NC(=O)NCC(c2ccccc2)c2ccccc2)c1	100
CCCCNC(=O)Nc1cccc(NC(=O)NCCCC)c1	23

Q. Returns the measured inhibition for the input compound. Input: CN(C)c1ccc(NC(=O)Nc2cc(NC(=O)Nc3ccc(N(C)C)cc3)c(Br)cc2Br)cc1
A. 98

Q. Same thing, different compound: COc1cccc(NC(=O)Nc2cccc(NC(=O)Nc3cccc(OC)c3)c2)c1
A. 8

---

Target: Peptidyl-prolyl cis-trans isomerase A (Rattus norvegicus) (UniProt P10111)
Assay: In vitro inhibition of the rotamase activity of cyclophilin A (CyPA) […]
Entries and their inhibition values follow.
Entry rule: numbers only, all in %.

Q. Returns the measured inhibition for the input compound. Input: O=C(Cc1ccccc1)Nc1cccc(NC(=O)c2cc(Cl)cc(Cl)c2)c1
A. 44

Q. Same thing, different compound: O=C(NCc1ccccc1)Nc1cccc(NC(=O)NCc2ccccc2)c1
A. 19

Q. Same thing, different compound: O=C(Nc1cc(Cl)cc(Cl)c1)NC1CCCC(NC(=O)Nc2cc(Cl)cc(Cl)c2)C1 (configuration not stated)
A. 100

---

Entries and their inhibition values follow.
Molecular target: Peptidyl-prolyl cis-trans isomerase A (Rattus norvegicus)
Experiment: In vitro inhibition of the rotamase activity of cyclophilin A (CyPA) […]
Just so you know, I need the unit written after the number.

Here is how some compounds turned out for inhibition.
O=C(Nc1cccc(NC(=O)Nc2ccon2)c1)Nc1ccon1	93%
O=C(Nc1ccc(I)cc1)Nc1cc(NC(=O)Nc2ccc(I)cc2)c(Br)cc1Br	100%
O=C(Nc1ccc(Br)cc1Br)NC1CCCC(NC(=O)Nc2ccc(Br)cc2Br)C1 (centres undefined)	100%

Please find the next compound below.
Q. Returns the measured inhibition for the input compound. Input: O=C(NCc1cccc2ccccc12)Nc1cccc(NC(=O)NCc2cccc3ccccc23)c1
A. 100%
